- Tested on: NCI-H460 lung
- assay.summary: NCI-60 one-dose screen, 48 h
- condition.info: 10 µM unless noted
The panel holds about 83,000 compounds, 20% with a hit somewhere; the sample as a whole holds those more often. The source made the active and inactive calls. Rule for the calls: active = growth percent below 10; inactive = the rest.
Give one outcome, nothing more. List: 1 (yes) = active, 0 (no) = inactive

Request: Each molecule tested received a call. Report the one for S=C=Nc1ccc2ccccc2c1 .
Response: 0 (no)

Request: Test call for this molecule, please: NC(=S)c1c(N)n(C2OC(CO)C(O)C2O)c2ncnc(N)c12 (configuration not stated)
Response: 1 (yes)

Request: Could you kindly confirm the outcome this assay logged for COc1cc(OC)c2cc(C(=O)c3ccc(C#N)cc3)c(=O)oc2c1 ?
Response: 0 (no)

Request: What was the test verdict on Cn1c2ccccc2c2nnc(NCCCCO)nc21 ?
Response: 0 (no)

Request: For this molecule, state the assay outcome: OCc1cccnc1
Response: 0 (no)

Request: # lookup: test call for CC1=CC(=Nc2ccc(N(C)C)cc2)C=C(C)C1=O
Response: 0 (no)

// switching to the query molecule
Request: Which outcome was assigned to NNC(=O)c1ccccc1N in this test?
Response: 0 (no)

Reference source for all entries: PubChem BioAssay (NCI)
